Source of measurements: ChEMBL document CHEMBL4513216

Record form. Attribute: INHIBITION. Fill in for each entry.
tested on: Plasmodium berghei; experiment: Screen against P. berghei liver stage (PbLuc), transformed with Luciferase, at 10uM; format: functional, HepG2; settings: tested at 10 uM
Among all 69,000 compounds or so, about 8,600 (12%) showed an effect of 50% or more. What follows is part of a selection rich in strong results, with near analogues and random picks from the rest.
One number for each entry, in %.

- compound: "CCOCC1CC2(CCN(C(=O)c3ncccn3)CC2)CO1 (configuration not stated)"
  numeric-value: 33.4
- compound: "CCc1ncc2c(n1)CN(Cc1ncc(C(C)(C)C)o1)CC2"
  numeric-value: 20
- compound: "COCCn1cncc1-c1nc2c([nH]1)CC(C)(C)CNC2=O"
  numeric-value: -27.6
- compound: "COC1CCN(C(=O)Nc2cc(C(F)(F)F)c[nH]c2=O)CC1"
  numeric-value: -111
- compound: "COC(=O)[C@H](C)NC(=O)c1cnc(Cc2ccc(F)cc2)s1"
  numeric-value: 51.7
- compound: "CC(C)n1nc(Cn2cccn2)c2c1CN(C1CCOC1)C2 (configuration not stated)"
  numeric-value: -12.1
- compound: "COC(=O)C(C)(C)NC(=O)c1cnc(Cc2ccc(F)cc2)s1"
  numeric-value: 92.8
- compound: "Cc1cccc(C(=O)Nc2c(C(N)=O)n[nH]c2C)c1C"
  numeric-value: -41.9

Okay, here is my list. What is INHIBITION for each of these?
1. CCN(CC1CCOC1)C(=O)c1cn2ccc(C)cc2n1 (configuration not stated)
2. Cc1ccccc1-c1cncc(C2CCN(C3CCOCC3)CC2)n1
3. CC(C)(O)CN1CCN(C(=O)COCc2ccccc2Cl)CC1
4. CC(C)NC(=O)CCNC(=O)c1cnc(Cc2ccc(F)cc2)s1

Response:
1. 30.5
2. 64.1
3. 23.1
4. 10.6
